Give GI50 for every item shown.
Tested on: MDA-MB-231
protocol: NCI tumour cell line growth inhibition, 48 h
Calls of active or inactive are those of the source. Rule as the data show it: active = GI50 up to about 1.1 µM and inactive = higher.

COc1ccc2nc(-c3ccc(N)cc3)sc2c1; 81.8 µM (inactive)

For the 5 compounds below, give their GI50 values.
1. COC(=O)CCC(=O)NC1=C(Nc2ccc(OC)cc2)C(=O)c2ccccc2C1=O
2. CNC(=O)OCc1c(COC(=O)NC)c(C)n(-c2ccc(Br)cc2)c1C
3. O=C(O)c1ccccc1CC1Cc2cc3c(cc2C1)CCC3
4. COC(=O)C(Cc1ccccc1)NC(=O)CSc1nnc(COc2ccc(Cl)cc2)n1-c1ccccc1 (stereo unspecified)
5. O=C1C(c2ccccc2)=[N+]([O-])c2ccccc21

Resp:
1. 10.7 µM (inactive)
2. 13.9 µM (inactive)
3. > 100 µM (inactive)
4. 18.6 µM (inactive)
5. 11.7 µM (inactive)
